target: AAK1 (UniProt A0A096LP25); assay: log2 fold change, soluble protein after heating vs DMSO (PISA); higher = thermal stabilisation; K562 cells, 10 uM, 30 min; active = over 0.2 and 3.5 SD of the protein, either way, in both replicates (recomputed)
Targets with a hit are over-represented here; the source holds about 7,900 in all. About 0.6% of all pairs of compound and target were hits.

smi	log2 fold change
Cc1sc2c(c1C)C(c1ccc(Cl)cc1)=N[C@@H](CC(=O)OC(C)(C)C)c1nnc(C)n1-2	-0.024 (inactive)
c1ccc([C@@H]2C[C@H]2NC2CCNCC2)cc1	0.072 (inactive)
O=C(N[C@@H](COc1ccc2[nH]c(=O)[nH]c2c1)c1ccccc1)c1cccn(Cc2ccc(F)c(F)c2)c1=O	-0.056 (inactive)
Cc1ccccc1-n1c(Cn2cnc3c(N)ncnc32)nc2cccc(C)c2c1=O	-0.046 (inactive)
